The reported numbers originate from patent US6737383B1.

Listing of entries alongside the reported Plant response rating, Redroot pigweed.
Tested on: pigweed
Assay: Test B pre/postemergence pigweed
Format: in vivo, Amaranthus retroflexus
Conditions: Preemergence, Rate 125 g/ha; scale of 0 to 10 where 0 is no effect and 10 is complete control
Could you keep your reply to the number by itself?

Check out these entries, answers already filled in.
CC(C)N(C(=O)n1oc(=O)n(CC(F)F)c1=O)c1ccc(F)cc1	8
CC(C)N(C(=O)n1oc(=O)n(C(C)C(=O)N(C)C)c1=O)c1ccccc1 (stereo not shown)	3
COC(=O)C(c1ccccc1)n1c(=O)on(C(=O)N(c2ccccc2)C(C)C)c1=O (stereo not shown)	0
COC(CCl)n1c(=O)on(C(=O)N(c2ccc(Cl)cc2)C(C)C)c1=O (stereo not shown)	0
COP(=O)(CCn1c(=O)on(C(=O)N(c2ccc(Cl)cc2)C(C)C)c1=O)OC	0
CC(C)N(C(=O)n1oc(=O)n(CC2=NOCC2)c1=O)c1ccc(F)cc1	7
CC(C)N(C(=O)n1oc(=O)n(C[C@H](C)Cl)c1=O)c1ccc(Cl)cc1	10
CCOC(CC)n1c(=O)on(C(=O)N(c2ccc(F)cc2)C(C)C)c1=O (stereo not shown)	0
COC(=O)C(CCO)n1c(=O)on(C(=O)N(c2ccc(F)cc2)C(C)C)c1=O (stereo not shown)	0

Exercise: Hello, please tell me recorded Plant response rating, Redroot pigweed for this one: CC(C)N(C(=O)n1oc(=O)n(CO)c1=O)c1ccc(F)cc1
Solution: 0
